- assay-protocol: Phase 1 study of a single oral dose of voxelotor in subjects with hepatic impairment: whole blood and plasma PK
- Format: in vivo, human
- condition-parameters: human, plasma, po, 1500 mg, plasma; mild hepatic impairment; 1500 mg single oral dose; read-out: AUCinf, GM (converted)
measured-metric: AUC(0-inf) (µg·h/mL)
// note: answer is a bare numeric in µg·h/mL

Specify reported AUC(0-inf) for the compound shown: CC(C)n1nccc1-c1ncccc1COc1cccc(O)c1C=O [voxelotor] 224
